Each entry below lists one item and its recorded TGI value.
test system: UO-31 renal; experiment: NCI tumour cell line growth inhibition, 48 h

Molecule: CC[C@H](C)[C@H](NC(=O)[C@H]1CCCCN1C)C(=O)N(C)[C@H](CCc1nc(C(=O)N[C@@H](Cc2ccccc2)C[C@H](C)C(=O)OC)cs1)C(C)C
Result Comparator: =
TGI [µM]: 13.7
--
Molecule: COc1cc(C2c3cc4c(cc3[C@H](OCCN(C)C)[C@@H]3COC(=O)C23)OCO4)cc(OC)c1O (stereo partly drawn)
Result Comparator: =
TGI [µM]: 1.71
--
Molecule: Cc1cc(C)cc(Nc2cc(C)nc3nc(C(F)(F)F)nn23)c1
Result Comparator: >
TGI [µM]: 100
--
Molecule: COC(=O)CSc1n[nH]c(-c2ccc(O)c([N+](=O)[O-])c2)n1
Result Comparator: >
TGI [µM]: 100
--
Molecule: CCOC(=O)c1c(C)n(Cc2ccc(OC)cc2)c2c1cc(O)c1[nH]c3c(c12)CCCC3
Result Comparator: =
TGI [µM]: 4.05
--
Molecule: O=C1c2ccccc2S[C@@H](O)[C@@H]2CCCN12
Result Comparator: >
TGI [µM]: 100
--
Molecule: COC(=O)[C@]12CCC(C)(C)C[C@H]1C1=CC[C@@H]3[C@@]4(C)C/C(=C/c5cccnc5)C(=O)C(C)(C)[C@@H]4CC[C@@]3(C)[C@]1(C)CC2
Result Comparator: =
TGI [µM]: 24.4
--
Molecule: CCOc1cc(NC(C)=O)ccc1C(=O)NN1C(=O)C(Oc2ccccc2)C1c1ccc(O)c(OC)c1 (stereo not drawn)
Result Comparator: >
TGI [µM]: 100
